The reported measurements were obtained from ChEMBL document CHEMBL1201862.

Listed here are molecules together with their documented GI50.
Tested on: COLO 205
assay.overview: NCI tumour cell line growth inhibition, 48 h
Active and inactive are the calls of the source. No stated cut-off is given here; in the data, active = GI50 up to about 1.1 µM and inactive = higher.

molecule	quantity.measured	result
Cc1ccc(C(=O)Nc2ccc(CP(=O)(O)O)cc2CP(=O)(O)O)cc1NC(=O)c1cccc(N)c1	GI50	> 100 µM (inactive)
Cn1[nH]nn/c1=N\N=C\c1ccccc1	GI50	> 10 µM (inactive)
Cc1c(Cl)c(=O)oc2cc(OCC(=O)c3ccccc3)ccc12	GI50	> 100 µM (inactive)
COc1ccccc1CCc1cc(OC)c(OC)c(OC)c1	GI50	42.2 µM (inactive)

Input line: Please report GI50 for the following molecule: C#CC1=CC(=O)C(OC)=CC1=O
Output line: 27 µM (inactive)

Input line: # return recorded GI50 for entry CC(=O)OC(/C=C/c1ccccc1)=C(OC(C)C)/C1=C(\c2ccccc2)SCCCSC1=O
Output line: > 100 µM (inactive)

Input line: Give the measured GI50 for C[C@]12CC[C@@H]3c4ccc(OC(=O)c5ccccc5)cc4CC[C@H]3[C@@H]1CCC2OC(=O)c1cccc2c(=O)c3ccccc3[nH]c12 (some centres undefined)
Output line: 16.9 µM (inactive)

Input line: Tell me its GI50 given CCc1cccc(CC)c1NC(=O)C1=C(C)NC(C)=C(C(=O)Nc2c(CC)cccc2CC)C1c1ccc([N+](=O)[O-])cc1 as the entry.
Output line: 18 µM (inactive)

Input line: Give the reported value of GI50 for this record: O=C(Nc1ccccc1)OCCN=C1c2ccccc2C(Br)C(Br)c2ccccc21 (centres undefined)
Output line: 4.94 µM (inactive)

====

Test system: MCF7
assay.overview: NCI tumour cell line growth inhibition, 48 h
Activity calls are given as the source filed them. No stated cut-off is given here; in the data, active = GI50 up to about 1.1 µM and inactive = higher.
Use one of these outcomes when replying: class 1 for active, class 0 for inactive

Record excerpt, results attached:
compound	qualitative.label
CC1=NOC2(C1)C(=O)Nc1ccccc12 (stereo not drawn)	class 0
N#Cc1c(NC(=S)NC(=O)c2ccccc2)nc2c(c1-c1ccccc1)CCCC2	class 0
CCOC(=O)c1c[nH]c2cc3c(cc2c1=O)CCS3(=O)=O.CCOC(=O)c1c[nH]c2ccc3c(c2c1=O)S(=O)(=O)CC3	class 0
C[C@@H]1OC(=O)C[C@H]2CC(=O)N(CCC3CN(S(=O)(=O)C(F)(F)F)c4ccc(Cc5ccc6c(c5)C(CCN5C[C@H]7[C@@H](CC(=O)O[C@H]7C)CC5=O)CN6S(=O)(=O)C(F)(F)F)cc43)C[C@@H]21 (stereo partly drawn)	class 0
COc1ccc(Cl)cc1NC(=O)c1cccc([N+](=O)[O-])c1O	class 0

Input line: Short answer needed: outcome of this test for CSc1nc(Br)nc2c1ncn2C1CC(Oc2ccc(C)cc2)C(COc2ccc(C)cc2)O1 (stereo not drawn) ?
Output line: class 0

Input line: Per the assay record, what outcome was assigned to N#C/C=C1\C=CC(O)C(O)C1OC1OC(CO)C(O)C(O)C1O (stereo not drawn) ?
Output line: class 0

Input line: Could you kindly confirm the outcome this assay logged for Oc1c(Cl)c(Cl)c(Cl)c(Cl)c1Cl ?
Output line: class 0

Input line: Just curious, what result did CCOC(=O)C1(C/C=C/CBr)CCc2ccccc2C1=O (stereo not drawn) get here?
Output line: class 0

Input line: What is the recorded call for this compound in the test? COc1ccc2[nH]c3c(C)c4ccncc4c(C)c3c2c1
Output line: class 1

Input line: Lab log entry: Cc1cnccc1/N=N/c1ccc(N(C)C)cc1 — outcome as called in the assay?
Output line: class 0

Input line: Which outcome was entered for the compound O=C(c1nsc(Cl)c1Cl)N1CCCCC1 in this test?
Output line: class 0

Input line: Which result was noted for this compound in the test: C/C(=N\Nc1nc2ccccc2s1)c1ccncn1
Output line: class 1
